- EXPERIMENTAL TARGET: K-Ras G12V (Homo sapiens, UniProt P01116, G12V)
- ASSAY OVERVIEW: Fluorescence anisotropy
- Assay type: binding
- EXPERIMENTAL SETUP: read-out: KDapp; FA, FITC-labeled peptide 100 nM; K-Ras G12V as purified from E. coli, mixture of GTP- and GDP-bound forms
ENDPOINT NAME: pKd
pKd here is simply -log10 of the concentration when that concentration is written in mol/L.

# input substance: bicyclo [Tm-Ala-leu-Phe-Arg-asn-Pra-Ile-Asp-Lys-Phe-Nal-Arg-Arg-Arg-Arg-Dap]-Lys [peptide 54] ; wanted: its pKd
4.77

----------
- EXPERIMENTAL TARGET: K-Ras G12V (Homo sapiens, UniProt P01116, G12V)
- ASSAY OVERVIEW: FA-based competition assay with DCAI
ENDPOINT NAME: pIC50
Keep it numeric: pIC50 is minus log10 of the concentration in mol/L.

Fill in: pIC50 of Cc1[nH]c2cc(Cl)cc(Cl)c2c1CCN is ___
3.08
